The values you see were collected from ChEMBL document CHEMBL1201862.

Test system: SF-539
EXPERIMENT: NCI tumour cell line growth inhibition, 48 h
Active and inactive are the calls of the source. No stated cut-off is given here; in the data, active = GI50 up to about 1.1 µM and inactive = higher.
Pick one and only one: T = active, F = inactive

Here's what some known entries look like.
MOLECULE	CLASSIFICATION
Cc1c2ccnc(C(=O)NCCN(C)C)c2cc2c3cc(O)ccc3n(C)c12	T
Nc1ccc(C(=O)CC2(O)C(=O)Nc3c(Cl)cc(Cl)cc32)cc1 (centres undefined)	F
Cc1ccc(-n2cc(-c3ccc(Cl)cc3)c3c2N=CN2N=C(c4cccs4)NC32)cc1 (centres undefined)	F

Request: Hey, what did the test say about COC1(C)CP(=O)(OC(C)C)CC(C)=C1Cl (centres undefined) ?
Response: F

Request: Hey, what did the test say about CCOP(=O)(OCC)C1CC(n2cc(C)c(=O)[nH]c2=O)OC1CO (centres undefined) ?
Response: F

Request: Hey, what did the test say about CC[C@@]1(O)C(=O)OCc2c1cc1n(c2=O)Cc2cc3cc4c(cc3nc2-1)OCO4 ?
Response: T

###

Tested on: NCI-H460
EXPERIMENT: NCI tumour cell line growth inhibition, 48 h
Active and inactive are the calls of the source. No stated cut-off is given here; in the data, active = GI50 up to about 1.1 µM and inactive = higher.
Pick one and only one: 1 for active, -1 for inactive

Here's what some known entries look like.
COMPOUND	ASSAYED_TARGET	CLASSIFICATION
CC(=O)/N=C1/N(/C=C2\C(=O)Oc3ccccc3C2=O)C(=O)/C(=C/c2ccc(NC(C)=O)cc2)N1C	NCI-H460	-1
C=C[C@]1(C)C[C@@H](OC(=O)CO)[C@@]2(C)[C@H](C)CC[C@]3(CCC(=O)[C@H]32)[C@@H](C)[C@@H]1O	NCI-H460	-1
O=C1CCCC2=C1C(c1ccc3c(c1)OCO3)Nc1ccc3ccccc3c12 (stereo unspecified)	NCI-H460	-1

Request: Hey, what did the test say about C=C1c2nc3ccccc3n2C=C(c2ccccc2)N1c1ccc([N+](=O)[O-])cc1 ?
Response: -1

Request: Hey, what did the test say about O=c1[nH]nc(Cn2c3ccc(Br)cc3c3nc4ccccc4nc32)n1C1CCCCC1 ?
Response: -1

Request: Hey, what did the test say about COc1ccccc1CCN1CCN(CCCc2ccccc2)CC1 ?
Response: -1

Request: Hey, what did the test say about Cc1cc2oc3c(ccc(=O)n3C)c(=O)c2c(C)c1Cl ?
Response: -1

Request: Hey, what did the test say about CCC(C)C1NC(=O)C(NC(=O)C(CC(C)C)N(C)C(=O)[C@@H]2C=CCN2C(=O)[C@H](C)O)C(C)OC(=O)[C@H](Cc2ccc(OC)cc2)N(C)C(=O)[C@@H]2CCCN2C(=O)[C@H](CC(C)C)NC(=O)C(C)C(=O)[C@H](C(C)C)OC(=O)CC1O (stereo partly specified) ?
Response: 1

Request: Hey, what did the test say about O=C(CSc1nccc(=O)[nH]1)c1ccccc1 ?
Response: -1

Request: Hey, what did the test say about COc1cccc([C@H]2C/C(=N\NC(=O)C(=O)N[C@@H](C)c3ccccc3)c3ccccc3N2)c1 ?
Response: -1

###

Test system: KM12
EXPERIMENT: NCI tumour cell line growth inhibition, 48 h
Calls of active or inactive are those of the source. Rule as the data show it: active = GI50 up to about 1.1 µM and inactive = higher.
EXPERIMENTAL_ENDPOINT: GI50

Answered cases to consult:
> print(dat)
                                    molecule  experimental.endpoint       endpoint.value
 1  C/C(=N\NC(=O)/C(C#N)=C\c1ccc(N(CCC#N)CCC#N)cc1)c1ccccc1                   GI50   > 10 µM (inactive)
 2               Nc1c(C(=O)O)nnc2ccc(Cl)cc12                   GI50  > 100 µM (inactive)
 3       CCOC(=O)c1cc(=O)oc2c1N(C)c1ncccc1N2                   GI50  > 100 µM (inactive)
 4  CC1(c2cccc3ccccc23)OC(=O)c2ccccc21 (centres undefined)                   GI50   25.1 µM (inactive)
 5  COc1ccc(N)c(C(O)CCNC(C)=O)c1 (centres undefined)                   GI50  > 100 µM (inactive)
 6  C=C1c2nc3ccccc3n2C=C(c2ccccc2)N1c1ccc([N+](=O)[O-])cc1                   GI50   4.14 µM (inactive)
 7  O=[N+]([O-])/C=C/c1cc(Cl)c(/C=C/[N+](=O)[O-])cc1Cl                   GI50   3.03 µM (inactive)
 8  CCOc1cc2ccc3c4cc(OC)c(OC)cc4cnc3c2cc1OCC                   GI50  > 100 µM (inactive)
 9            CC1(C)N=c2[nH]cnc2=C(C(N)=O)N1                   GI50  > 100 µM (inactive)
10  CCOc1ccccc1/N=N/C1C(=O)N(C(=O)CC(=O)Nc2ccccc2C)N=C1C (centres undefined)                   GI50  > 100 µM (inactive)

Request: What does the record list as GI50 for Cc1ccc(S(=O)(=O)n2cncc2CO)cc1 ?
Response: > 100 µM (inactive)

Request: What does the record list as GI50 for COc1cc(CCC(=O)O)c2cc3ccccc3cc2c1O ?
Response: 20.5 µM (inactive)

Request: What does the record list as GI50 for CCOC1OCCCC1Br (centres undefined) ?
Response: > 100 µM (inactive)

Request: What does the record list as GI50 for CCOC(=O)C(=O)Nc1cccc(C)c1C ?
Response: > 100 µM (inactive)

Request: What does the record list as GI50 for c1ccc(C[n+]2cccc(-c3cc4ccccc4[nH]3)c2)cc1 ?
Response: 16.6 µM (inactive)

Request: What does the record list as GI50 for O=C1c2scc(-c3ccccc3)c2-n2cccc21 ?
Response: 13.6 µM (inactive)
